# Subject of test: Serotonin 3 (5-HT3) receptor (Rattus norvegicus, UniProt P35563+Q9JJ16)
# Sequence (P35563 whole entry): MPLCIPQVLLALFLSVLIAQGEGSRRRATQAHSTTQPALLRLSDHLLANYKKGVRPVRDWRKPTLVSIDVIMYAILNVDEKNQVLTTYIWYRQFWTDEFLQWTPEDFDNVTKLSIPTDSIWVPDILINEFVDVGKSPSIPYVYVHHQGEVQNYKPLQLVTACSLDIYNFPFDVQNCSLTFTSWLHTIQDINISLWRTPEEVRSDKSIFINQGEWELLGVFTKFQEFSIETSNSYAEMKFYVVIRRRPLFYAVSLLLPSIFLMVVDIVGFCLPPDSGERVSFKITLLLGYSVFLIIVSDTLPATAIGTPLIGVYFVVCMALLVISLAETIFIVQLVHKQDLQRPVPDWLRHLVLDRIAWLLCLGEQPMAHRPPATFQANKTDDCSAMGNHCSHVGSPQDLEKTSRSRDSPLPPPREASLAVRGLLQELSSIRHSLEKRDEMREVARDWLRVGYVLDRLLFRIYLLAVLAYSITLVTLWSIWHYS
# Sequence (Q9JJ16 whole entry): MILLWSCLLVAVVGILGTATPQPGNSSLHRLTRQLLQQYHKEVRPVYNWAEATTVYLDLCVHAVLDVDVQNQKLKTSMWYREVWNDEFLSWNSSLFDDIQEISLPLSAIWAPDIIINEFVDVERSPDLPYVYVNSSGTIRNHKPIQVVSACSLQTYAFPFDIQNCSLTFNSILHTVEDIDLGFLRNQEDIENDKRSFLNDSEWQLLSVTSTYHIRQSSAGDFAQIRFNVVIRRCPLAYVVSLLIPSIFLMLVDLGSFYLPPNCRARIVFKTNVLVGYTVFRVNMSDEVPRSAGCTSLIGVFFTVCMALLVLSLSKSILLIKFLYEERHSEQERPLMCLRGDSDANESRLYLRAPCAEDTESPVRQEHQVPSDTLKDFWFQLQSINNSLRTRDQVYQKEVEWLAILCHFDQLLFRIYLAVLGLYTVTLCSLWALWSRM
# Assay: Binding affinity to 5-hydroxytryptamine 3 receptor in rat entorhinal cortex using [3H]-BRL 43694 as radioligand
Observation type: pKi
Would you please state pKi, meaning minus log10 of the concentration in mol/L, as a bare number?

Here's what some known entries look like.
So for COc1cc(N)c(Cl)cc1C(=O)N[C@H]1C[N+]2(CCl)CCC1CC2 , the logged pKi turned out to be 7.70

response.value for COc1cc(N)c(Cl)cc1C(=O)N[C@@H]1C[N+]2(CCl)CCC1CC2 (field: pKi) = 7.83

For reference, reported pKi for Nc1ccc2c3c(cccc13)C(=O)N([C@@H]1C[N+]3(CCl)CCC1CC3)C2=O stands at 6.48

Please find the next compound below.
Per the records, this compound ( Nc1ccc2c3c(cccc13)C(=O)N([C@H]1C[N+]3(CCl)CCC1CC3)C2=O ) has pKi equal to 9.46
